- TARGET OR TEST SYSTEM: human NKp46 (full length, on cells) (human, UniProt O76036 22-304)
- Sequence (O76036 22-304 Q82K): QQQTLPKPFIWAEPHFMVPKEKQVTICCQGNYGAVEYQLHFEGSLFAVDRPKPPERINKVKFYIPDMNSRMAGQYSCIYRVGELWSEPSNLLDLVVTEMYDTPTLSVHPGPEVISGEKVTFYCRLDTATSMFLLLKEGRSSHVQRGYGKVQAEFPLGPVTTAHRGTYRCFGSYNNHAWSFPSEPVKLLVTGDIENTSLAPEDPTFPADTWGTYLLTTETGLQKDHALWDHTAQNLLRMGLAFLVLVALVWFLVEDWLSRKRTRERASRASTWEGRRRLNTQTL
- ASSAY EXPLANATION: cell-based or functional assay
OBSERVATION TYPE: EC50 of NK cell activation (CD107a-positive NK cells, plate-coated antibody)

>  <BINDER>
H3-PA31 humanized antibody (antibody, human IgG1, V domains shown, not shown: constant region of human IgG1) VH: EVQLVESGGGLVQPGGSLRLSCAVSGRTFSRLPMGWFRQAPGKGREFVAAISWSSSTTYYADSVKGRFTISRDNSKNTAYLQMNSLRAEDTAVYYCAAVGGSLDYSATVVYTAARAYADWGQGTLVTVSS

>  <OBSERVED MEASUREMENT>
0.75 nM

$$$$
>  <BINDER>
H2-PA27 humanized antibody (antibody, human IgG1, V domains shown, not shown: constant region of human IgG1) VH: QVQLVESGGGVVQPGRSLRLSCAASGRTESWYRMGWFRQAPGKGLEVVARISGDTNIKYYAGSVKGRFTISRDNSKNTLYLQMSSLRAEDTAVYYCAADRTGATWDYWGQGTLVTVSS

>  <OBSERVED MEASUREMENT>
> 20 nM

$$$$
